# Tested on: Fibroblast
# Assay Details: Multiplex assay against human fibroblast
# Type: toxicity, cell-based
# Measurement Context: 24 h, 1 µM, compound concentration 1 uM, replicate 2
Quantity Measured: Population Normal (%)
State just the number; it will be interpreted in %.

Reported Population Normal (%), molecule `CN(c1cc(C(F)(F)F)nc(OCCC(=O)O)n1)c1cccc2c1CCC2` : ____
91

Reported Population Normal (%), molecule `CCOc1ccn(-c2ccc(F)cc2)c(=O)c1C(=O)Nc1ccc(Oc2ccnc(N)c2Cl)c(F)c1` : ____
68

Reported Population Normal (%), molecule `CCCc1cc(C)[nH]c(=O)c1CNC(=O)c1cc(-c2ccc(N3CCN(C(C)C)CC3)nc2)cc2c1cnn2C(C)C` : ____
90

Reported Population Normal (%), molecule Cl.Cn1c2c(c3ccc(Cl)c(Cl)c31)C(C#N)C1(CCNCC1)NC2=O (centres undefined) : ____
70

Reported Population Normal (%), molecule `C[C@@H](Oc1cc(-n2cnc3ccc(CN4CCN(C)CC4)cc32)sc1C(N)=O)c1ccccc1C(F)(F)F` : ____
95

Reported Population Normal (%), molecule CN1C(=O)[C@@H](NC(=O)c2cc3ccccc3[nH]2)N=C(c2ccccc2)c2ccccc21 [DEVAZEPIDE] : ____
98

Reported Population Normal (%), molecule `N#CCNC(=O)c1ccc(-c2ccnc(Nc3ccc(N4CCOCC4)cc3)n2)cc1` : ____
89

Reported Population Normal (%), molecule `Cc1ccc(S(=O)(=O)NC2c3ccccc3Oc3ccccc32)cc1` : ____
92

Reported Population Normal (%), molecule `CC(C)c1cc(Nc2nc(N3CCC[C@H](N)C3)ncc2C(N)=O)cc(C(C)C)n1` : ____
94

----------
# System: HEK-293T
# Assay Details: Multiplex assay against HEK293T
# Type: toxicity, cell-based
# Measurement Context: human, 24 h, 1 µM, compound concentration 1 uM, replicate 2
Classify: Criterion met when Population Apoptotic (%) is strictly less than 10%; Criterion not met when Population Apoptotic (%) is not.

Decide: Population Apoptotic (%) of CC(Cc1ccc(O)c(O)c1)C(C)Cc1ccc(O)c(O)c1 (stereo not given) [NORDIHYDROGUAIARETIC ACID] strictly below 10%?
Criterion not met

Decide: Population Apoptotic (%) of CN1C(=O)[C@@H](NC(=O)c2cc3ccccc3[nH]2)N=C(c2ccccc2)c2ccccc21 [DEVAZEPIDE] strictly below 10%?
Criterion not met

Decide: Population Apoptotic (%) of `CC(C)c1cc(Nc2nc(N3CCC[C@H](N)C3)ncc2C(N)=O)cc(C(C)C)n1` strictly below 10%?
Criterion not met

Decide: Population Apoptotic (%) of `Cl.NC[C@@H]1O[C@H](C23CC4CC(CC(C4)C2)C3)Cc2c1ccc(O)c2O` strictly below 10%?
Criterion not met

Decide: Population Apoptotic (%) of `Cc1ccc(NC(=O)Nc2cc(C(F)(F)F)ccc2F)cc1Nc1ccc2c(c1)NC(=O)/C2=C\c1ccc[nH]1` strictly below 10%?
Criterion met

----------
# System: HEK-293T
# Assay Details: Multiplex assay against HEK293T
# Type: toxicity, cell-based
# Measurement Context: human, 12 h, 10 µM, compound concentration 10 uM, replicate 2
Quantity Measured: Total Cell Count
Please reply with the value in numeric form only.

Request: Total Cell Count, test system HEK-293T, entry `Cc1c(Nc2ccc(S(=O)(=O)N3CCN(C)CC3)cc2F)nc2ccc(Nc3cnn(C4CC4)c3)cn2c1=O`
1683

Request: Total Cell Count, test system HEK-293T, entry `CCCCN(CC)c1nc(C)nc2c1c(C)cn2-c1c(C)cc(C)cc1C.Cl`
211

Request: Total Cell Count, test system HEK-293T, entry `CC[C@@]1(O)C(=O)OCc2c1cc1n(c2=O)Cc2cc3ccccc3nc2-1`
1781

Request: Total Cell Count, test system HEK-293T, entry CCCCCNC(=N)N/N=C/c1c[nH]c2ccc(OC)cc12.O=C(O)/C=C\C(=O)O [TEGASEROD MALEATE]
93

----------
Hi there, I'd appreciate the recorded Population Normal (%) for every entry that follows.
# System: Fibroblast
# Assay Details: Multiplex assay against human fibroblast
# Type: toxicity, cell-based
# Measurement Context: 12 h, 10 µM, compound concentration 10 uM, replicate 1

Reported Population Normal (%), compound CC(Cc1ccc(O)c(O)c1)C(C)Cc1ccc(O)c(O)c1 (stereo not drawn) [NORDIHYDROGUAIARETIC ACID] : ____
85%

Reported Population Normal (%), compound `Cc1ccc(NC(=O)Nc2cc(C(F)(F)F)ccc2F)cc1Nc1ccc2c(c1)NC(=O)/C2=C\c1ccc[nH]1` : ____
82%

Reported Population Normal (%), compound CC(C)[C@H](CO)Nc1nc(Nc2cccc(Cl)c2)c2ncn(C(C)C)c2n1 [PURVALANOLA] : ____
82%

Reported Population Normal (%), compound CCCCCNC(=N)N/N=C/c1c[nH]c2ccc(OC)cc12.O=C(O)/C=C\C(=O)O [TEGASEROD MALEATE] : ____
80%

Reported Population Normal (%), compound NC(=O)c1ccc2nc(-c3ccc(C4(N)CCC4)cc3)c(-c3ccccc3)n2n1 [BAY-1125976] : ____
86%

Reported Population Normal (%), compound `CCCCN(CC)c1nc(C)nc2c1c(C)cn2-c1c(C)cc(C)cc1C.Cl` : ____
86%

Reported Population Normal (%), compound `CCOC(=O)CCNc1cc(N2CCc3ccccc3CC2)nc(-c2ccccn2)n1` : ____
82%

Reported Population Normal (%), compound COc1cc(C)c(Sc2cnc(NC(=O)c3ccc(CNC(C)C(C)(C)C)cc3)s2)cc1C(=O)N1CCN(C(C)=O)CC1 (stereo not drawn) : ____
87%

Reported Population Normal (%), compound `CC(C)c1cc(Nc2nc(N3CCC[C@H](N)C3)ncc2C(N)=O)cc(C(C)C)n1` : ____
71%

Reported Population Normal (%), compound Cl.Cn1c2c(c3ccc(Cl)c(Cl)c31)C(C#N)C1(CCNCC1)NC2=O (stereo not drawn) : ____
80%

Reported Population Normal (%), compound `N#Cc1cccc(C(=O)Nc2cc(-c3ccccc3)nn2-c2ccccc2)c1` : ____
91%

Reported Population Normal (%), compound `c1ccc(-c2oc3ncnc(NC[C@@H]4CCCO4)c3c2-c2ccccc2)cc1` : ____
79%

Reported Population Normal (%), compound CC[C@@]1(O)C(=O)OCc2c1cc1n(c2=O)Cc2cc3ccccc3nc2-1 [CAMPTOTHECIN] : ____
72%

Reported Population Normal (%), compound CC[C@H](Nc1ncnc2[nH]cnc12)c1nc2cccc(F)c2c(=O)n1-c1ccccc1 [IDELALISIB] : ____
89%

Reported Population Normal (%), compound `Cc1ccc(S(=O)(=O)NC2c3ccccc3Oc3ccccc32)cc1` : ____
82%

Reported Population Normal (%), compound `Cl.NC[C@@H]1O[C@H](C23CC4CC(CC(C4)C2)C3)Cc2c1ccc(O)c2O` : ____
84%

Reported Population Normal (%), compound N#CCNC(=O)c1ccc(-c2ccnc(Nc3ccc(N4CCOCC4)cc3)n2)cc1 [MOMELOTINIB] : ____
86%

Reported Population Normal (%), compound C[C@@H](Oc1cc(-n2cnc3ccc(CN4CCN(C)CC4)cc32)sc1C(N)=O)c1ccccc1C(F)(F)F [GSK-461364] : ____
74%

----------
Hi there, I'd appreciate the recorded Population Pyknosed Nuclei (%) for every entry that follows.
# System: Fibroblast
# Assay Details: Multiplex assay against human fibroblast
# Format: toxicity, cell-based
# Measurement Context: 12 h, 10 µM, compound concentration 10 uM, replicate 1
State just the number; it will be interpreted in %.

Request: Population Pyknosed Nuclei (%), test system Fibroblast, entry CC[C@@H]1C(=O)N(C)c2cnc(Nc3ccc(C(=O)NC4CCN(C)CC4)cc3OC)nc2N1C1CCCC1 [BI-2536]
11

Request: Population Pyknosed Nuclei (%), test system Fibroblast, entry CCCCCNC(=N)N/N=C/c1c[nH]c2ccc(OC)cc12.O=C(O)/C=C\C(=O)O [TEGASEROD MALEATE]
52

Request: Population Pyknosed Nuclei (%), test system Fibroblast, entry `Cc1ccc(S(=O)(=O)NC2c3ccccc3Oc3ccccc32)cc1`
16

Request: Population Pyknosed Nuclei (%), test system Fibroblast, entry `CN(c1cc(C(F)(F)F)nc(OCCC(=O)O)n1)c1cccc2c1CCC2`
27

Request: Population Pyknosed Nuclei (%), test system Fibroblast, entry `Cc1c(P(=S)(c2ccccc2)c2ccccc2)n2ccccc2[n+]1C/C=C/c1ccccc1.[Br-]`
62

Request: Population Pyknosed Nuclei (%), test system Fibroblast, entry N#CCNC(=O)c1ccc(-c2ccnc(Nc3ccc(N4CCOCC4)cc3)n2)cc1 [MOMELOTINIB]
31

Request: Population Pyknosed Nuclei (%), test system Fibroblast, entry `Cc1c(Nc2ccc(S(=O)(=O)N3CCN(C)CC3)cc2F)nc2ccc(Nc3cnn(C4CC4)c3)cn2c1=O`
13

Request: Population Pyknosed Nuclei (%), test system Fibroblast, entry CC[C@H](Nc1ncnc2[nH]cnc12)c1nc2cccc(F)c2c(=O)n1-c1ccccc1 [IDELALISIB]
13
